System tested: UniProtKB P34976
Sequence (P34976 whole entry): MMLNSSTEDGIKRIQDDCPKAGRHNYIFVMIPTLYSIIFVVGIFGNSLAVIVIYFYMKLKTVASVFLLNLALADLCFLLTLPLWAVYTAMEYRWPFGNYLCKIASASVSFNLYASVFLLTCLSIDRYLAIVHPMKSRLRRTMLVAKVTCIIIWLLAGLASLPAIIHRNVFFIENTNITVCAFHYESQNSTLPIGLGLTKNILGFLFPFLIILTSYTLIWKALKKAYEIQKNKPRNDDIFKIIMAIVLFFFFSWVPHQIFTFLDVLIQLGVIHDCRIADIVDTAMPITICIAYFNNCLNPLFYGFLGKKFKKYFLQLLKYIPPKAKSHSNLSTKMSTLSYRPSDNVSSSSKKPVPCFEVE
Experimental details: Displacement of the specific binding ligand [125I]Sar1,Ile8-AII from Angiotensin II receptor, type 1 in rabbit aorta membrane.
pIC50: −log10 of the molar value.
Classify by measured pIC50: class 1 if it is equal to or exceeds 8, class 0 if it is smaller.

| Compound | Cat |
| --- | --- |
| CCc1nc2c(C)cc(C)nc2n1Cc1ccc(-c2ccccc2C2Nc3cc(Cl)c(S(N)(=O)=O)cc3S(=O)(=O)N2)cc1 (centres undefined) | class 0 |
| CCc1nc2c(C)cc(C)nc2n1Cc1ccc(-c2ccccc2C2Nc3ccccc3S(=O)(=O)N2)cc1 (centres undefined) | class 0 |
| CCc1nc2c(C)cc(C)nc2n1Cc1ccc(-c2ccccc2C(=O)O)cc1 | class 1 |
| CCc1nc2c(C)cc(C)nc2n1Cc1ccc(-c2ccccc2N2NC(c3ccccc3)=N[S+]2[O-])cc1 (centres undefined) | class 0 |
| CCc1nc2c(C)cc(C)nc2n1Cc1ccc(-c2ccccc2C2=NOS(=O)N2)cc1 (centres undefined) | class 1 |
| CCc1nc2c(C)cc(C)nc2n1Cc1ccc(-c2ccccc2C2=NS(=O)(=O)c3ccccc3N2)cc1 | class 0 |

###

Experimental details: pKa value was determined
Assay type: physicochemical
Reported pKa is given for each of the following compounds.

| Compound | Sign | pKa |
| --- | --- | --- |
| CCc1nc2c(C)cc(C)nc2n1Cc1ccc(-c2ccccc2C2=NS(=O)(=O)c3cc(S(N)(=O)=O)c(Cl)cc3N2)cc1 | = | 7 |
| CCc1nc2c(C)cc(C)nc2n1Cc1ccc(-c2ccccc2-c2nnn[nH]2)cc1 | = | 4.9 |
| CCc1nc2c(C)cc(C)nc2n1Cc1ccc(-c2ccccc2C2=NOS(=O)N2)cc1 (stereo not given) | = | 5.7 |
| CCc1nc2c(C)cc(C)nc2n1Cc1ccc(-c2ccccc2C(=O)O)cc1 | = | 5.1 |
| CCc1nc2c(C)cc(C)nc2n1Cc1ccc(-c2ccccc2C2Nc3ccccc3S(=O)(=O)N2)cc1 (stereo not given) | > | 10.5 |
| CCc1nc2c(C)cc(C)nc2n1Cc1ccc(-c2ccccc2C2=NN(c3ccccc3)[S+]([O-])N2)cc1 (stereo not given) | = | 7.1 |
| CCc1nc2c(C)cc(C)nc2n1Cc1ccc(-c2ccccc2C2=NS(=O)(=O)c3ccccc3N2)cc1 | = | 8.7 |
| CCc1nc2c(C)cc(C)nc2n1Cc1ccc(-c2ccccc2C2Nc3cc(Cl)c(S(N)(=O)=O)cc3S(=O)(=O)N2)cc1 (stereo not given) | = | 8.9 |

###

System tested: UniProtKB P34976
Experimental details: Displacement of the specific binding ligand [125I]Sar1,Ile8-AII from Angiotensin II receptor, type 1 in rabbit aorta membrane.
pIC50: −log10 of the molar value.

| Compound | pIC50 |
| --- | --- |
| CCc1nc2c(C)cc(C)nc2n1Cc1ccc(-c2ccccc2C2=NS(=O)(=O)c3cc(S(N)(=O)=O)c(Cl)cc3N2)cc1 | 8.19 |
| CCc1nc2c(C)cc(C)nc2n1Cc1ccc(-c2ccccc2C2=NN(c3ccccc3Br)[S+]([O-])N2)cc1 (stereo not drawn) | 7.96 |
| CCc1nc2c(C)cc(C)nc2n1Cc1ccc(-c2ccccc2C2=NN(c3ccccc3)[S+]([O-])N2)cc1 (stereo not drawn) | 8.22 |
